Measured Adherence index values are reported for all entries that follow.
- Tested on: recognition of C3bi by antibody 12.1F9
- test: Inhibition of binding of 12.1F9 to E^C3bi by peptides
- Parameters: species or system human
- measurement.parameters: peptides 50 μg/ml; normalized to control value of 100; 6 experiments
Give only the figure.

INPUT: # input sequence: VTVGRGDPAQG [FHA RGD] ; wanted: its Adherence index
OUTPUT: 85

INPUT: Bench note: what Adherence index did TRYRGDQDATMS [C3/12, reference compound] show?
OUTPUT: 127

INPUT: Reported Adherence index, sequence YTVAIAGYALA [C3-pep 1187-1197] : ____
OUTPUT: 30

Now for a further sequence.
INPUT: Could you share which Adherence index value was measured for YTVSADAIALA [FHA 1408-1418] ?
OUTPUT: 21

The measurements presented in this section are drawn from patent US5792457A.
